measured.on: UniProtKB P33261
Sequence (P33261 whole entry): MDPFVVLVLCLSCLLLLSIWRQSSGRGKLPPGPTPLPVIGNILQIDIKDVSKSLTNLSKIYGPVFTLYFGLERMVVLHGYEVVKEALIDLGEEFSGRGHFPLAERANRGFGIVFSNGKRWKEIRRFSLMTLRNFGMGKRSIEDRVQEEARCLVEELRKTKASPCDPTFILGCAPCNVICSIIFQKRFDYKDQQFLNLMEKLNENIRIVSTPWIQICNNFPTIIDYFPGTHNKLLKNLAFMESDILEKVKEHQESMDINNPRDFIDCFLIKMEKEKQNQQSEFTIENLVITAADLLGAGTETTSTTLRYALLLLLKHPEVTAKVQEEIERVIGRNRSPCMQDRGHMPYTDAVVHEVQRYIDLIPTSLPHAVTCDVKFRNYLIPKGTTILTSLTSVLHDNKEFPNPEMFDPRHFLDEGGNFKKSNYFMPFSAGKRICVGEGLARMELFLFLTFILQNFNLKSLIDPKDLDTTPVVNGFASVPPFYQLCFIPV
method: Time-dependent inhibition (TDI) of CYP2C19 in human liver microsomes
Format: in vitro ADME
settings: 30 min preincubation with NADPH
endpoint: IC50 (µM)
I only need the number, in µM, no unit after it.

Prompt: In one line, give reported IC50 of the entry C[C@]1(c2ccc(Cl)cn2)Oc2cccc(C3CCN(Cc4nc5sc(C(=O)O)cc5n4C[C@@H]4CCO4)CC3)c2O1 (single isomer, unassigned) .
Response: 29.2

###

measured.on: UniProtKB P43220
Sequence (P43220 24-463): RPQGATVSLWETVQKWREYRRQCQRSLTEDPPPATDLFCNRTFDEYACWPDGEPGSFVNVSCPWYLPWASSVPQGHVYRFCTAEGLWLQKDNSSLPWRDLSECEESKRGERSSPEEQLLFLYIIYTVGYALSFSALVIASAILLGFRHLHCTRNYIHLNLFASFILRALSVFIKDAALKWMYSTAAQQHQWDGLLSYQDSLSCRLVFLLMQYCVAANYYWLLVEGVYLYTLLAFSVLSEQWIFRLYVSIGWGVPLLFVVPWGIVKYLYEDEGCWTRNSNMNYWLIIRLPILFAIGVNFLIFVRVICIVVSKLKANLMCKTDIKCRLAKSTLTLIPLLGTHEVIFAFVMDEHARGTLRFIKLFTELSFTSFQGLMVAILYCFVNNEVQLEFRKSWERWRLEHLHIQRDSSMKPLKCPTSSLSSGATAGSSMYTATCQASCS
method: In vitro cell activity assay (cAMP, HEK293 GLP-1 cells)
settings: cAMP detection
endpoint: pEC50
Just the number, please; pEC50 means minus log10 of the concentration in mol/L.

See these solved cases before continuing.
Prompt: In one line, give reported pEC50 of the entry C[C@@]1(c2ccc(Cl)cn2)Oc2cccc(N3CCN(Cc4nc5sc(C(=O)O)cc5n4C[C@H]4CCO4)CC3)c2O1 .
Response: 9.29

Prompt: In one line, give reported pEC50 of the entry C[C@]1(c2ccc(Cl)cn2)Oc2cccc(C3CCN(Cc4nc5sc(C(=O)O)c(F)c5n4C[C@@H]4CCO4)CC3)c2O1 (single isomer, unassigned) .
Response: 9.27

Now consider the entry below.
Prompt: In one line, give reported pEC50 of the entry C[C@]1(c2ccc(Cl)cn2)Oc2cccc(C3CCN(Cc4nc5sc(C(=O)O)cc5n4C[C@@H]4CCO4)CC3)c2O1 (single isomer, unassigned) .
Response: 9.06
